- subject-of-test: hS1P1/CHO cells (Homo sapiens (Human))
- Sequence (P21453 whole entry): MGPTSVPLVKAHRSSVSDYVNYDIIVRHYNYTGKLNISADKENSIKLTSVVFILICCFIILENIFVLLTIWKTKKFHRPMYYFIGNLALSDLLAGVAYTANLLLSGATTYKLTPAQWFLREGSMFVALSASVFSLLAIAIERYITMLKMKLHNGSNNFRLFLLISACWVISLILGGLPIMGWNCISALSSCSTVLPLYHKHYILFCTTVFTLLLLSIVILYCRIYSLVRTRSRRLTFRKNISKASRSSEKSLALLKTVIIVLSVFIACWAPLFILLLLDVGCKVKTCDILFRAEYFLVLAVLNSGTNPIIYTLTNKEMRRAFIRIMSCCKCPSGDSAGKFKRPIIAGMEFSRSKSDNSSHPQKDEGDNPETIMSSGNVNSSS
- test-summary: hS1P1 ERK phosphorylation (S1P1 pERK)
- experimental-parameters: phosphate examples
pEC50: −log10 of the molar value.
Kindly supply the reported pEC50 values for the records listed here.

Value sought for every listed compound: pEC50.
1. COc1cccc(CO[C@H]2CCc3cc([C@H]4CC[C@](N)(COP(=O)(O)O)C4)ccc3C2)c1
2. CC(C)SCC[C@H]1CCc2cc([C@H]3CC[C@](N)(COP(=O)(O)O)C3)ccc2C1
3. COc1ccccc1CCC[C@@H]1CCc2cc([C@H]3CC[C@](N)(COP(=O)(O)O)C3)ccc2C1
4. Cc1cccc(/C=C/[C@@H]2CCc3cc([C@H]4CC[C@](N)(COP(=O)(O)O)C4)ccc3C2)c1

Result:
["> 8.00", "> 8.00", "6.00 to 7.00", "6.00 to 7.00"]

Lab note: each compound below needs its pEC50 filled in.
1. N[C@]1(COP(=O)(O)O)CC[C@H](c2ccc3c(c2)CC[C@@H](CCc2ccccc2)C3)C1
2. CC(C)=CCCOC[C@@H]1CCc2cc([C@H]3CC[C@](N)(COP(=O)(O)O)C3)ccc2C1
3. CCCC[C@@H]1CCCC2(CCc3cc([C@H]4CC[C@](N)(COP(=O)(O)O)C4)ccc3C2)O1 (stereo partly drawn)
4. N[C@]1(COP(=O)(O)O)CC[C@H](c2ccc3c(c2)CC[C@@H](Cc2ccccc2)C3)C1

Result:
1. 7.00 to 8.00
2. > 8.00
3. > 8.00
4. 7.00 to 8.00

----------
- subject-of-test: UniProtKB P21453
- test-summary: S1P1 binding assay (33P-S1P radioligand competition, CHO cell membranes)
- experimental-parameters: phosphate examples; read-out: S1P1 Binding
pIC50: −log10 of the molar value.
For each of the molecules below, state its pIC50.

molecule: COc1cc(OC[C@@H]2CCc3cc([C@H]4CC[C@](N)(COP(=O)(O)O)C4)ccc3C2)ccc1Cl
pIC50: > 8.00

molecule: CC(C)(C)CCSC[C@@H]1CCc2cc([C@H]3CC[C@](N)(COP(=O)(O)O)C3)ccc2C1
pIC50: > 8.00

molecule: COc1ccc(OC[C@@H]2CCc3cc([C@H]4CC[C@](N)(COP(=O)(O)O)C4)ccc3C2)cc1
pIC50: 7.00 to 8.00

molecule: N[C@]1(COP(=O)(O)O)CC[C@H](c2ccc3c(c2)CC[C@@H](CCc2ccccc2)C3)C1
pIC50: 7.00 to 8.00

molecule: N[C@]1(COP(=O)(O)O)CC[C@H](c2ccc3c(c2)CC[C@H](COCc2ccccc2)C3)C1
pIC50: 7.00 to 8.00

molecule: CCCCO/N=C(\C)[C@@H]1CCc2cc([C@H]3CC[C@](N)(COP(=O)(O)O)C3)ccc2C1
pIC50: > 8.00

molecule: CC(C)OCCCC[C@H]1CCc2cc([C@H]3CC[C@](N)(COP(=O)(O)O)C3)ccc2C1
pIC50: 7.00 to 8.00

molecule: CCC=CCOC[C@@H]1CCc2cc([C@H]3CC[C@](N)(COP(=O)(O)O)C3)ccc2C1
pIC50: 7.00 to 8.00

Batch request: pIC50 for each of the following molecules.
1. CC(C)CSCC[C@@H]1CCc2cc([C@H]3CC[C@](N)(COP(=O)(O)O)C3)ccc2C1
2. CCCCC[C@@H]1CCc2cc([C@@H]3CC[C@@](N)(COP(=O)(O)O)C3)ccc2C1
3. Cc1cccc(/C=C/[C@@H]2CCc3cc([C@H]4CC[C@](N)(COP(=O)(O)O)C4)ccc3C2)c1
4. COc1ccc(OC[C@@H]2CCc3cc([C@H]4CC[C@](N)(COP(=O)(O)O)C4)ccc3C2)c(F)c1F
5. CCCC[C@@H]1CCCC2(CCc3cc([C@H]4CC[C@](N)(COP(=O)(O)O)C4)ccc3C2)O1 (stereo partly drawn)

Result:
["> 8.00", "> 8.00", "6.00 to 7.00", "7.00 to 8.00", "7.00 to 8.00"]

List pIC50 for every entry below, keeping the order given.
1. CCCCCCC1Cc2ccc([C@H]3CC[C@](N)(COP(=O)(O)O)C3)cc2CO1 (stereo partly drawn)
2. N[C@@]1(COP(=O)(O)O)CC[C@@H](c2ccc3c(c2)CC[C@H](CCc2cccnc2)C3)C1 (single isomer, unassigned)

Result:
1: > 8.00; 2: 7.00 to 8.00
